Some variants, each annotated with its measured ratio to parent.
B1: Myc-B55α wild type [not stated] / Flag-pRB [not stated] (parent complex)
chain 1: MAGAGGGNDIQWCFSQVKGAVDDDVAEADIISTVEFNHSGELLATGDKGGRVVIFQQEQENKIQSHSRGEYNVYSTFQSHEPEFDYLKSLEIEEKINKIRWLPQKNAAQFLLSTNDKTIKLWKISERDKRPEGYNLKEEDGRYRDPTTVTTLRVPVFRPMDLMVEASPRRIFANAHTYHINSISINSDYETYLSADDLRINLWHLEITDRSFNIVDIKPANMEELTEVITAAEFHPNSCNTFVYSSSKGTIRLCDMRASALCDRHSKLFEEPEDPSNRSFFSEIISSISDVKFSHSGRYMMTRDYLSVKIWDLNMENRPVETYQVHEYLRSKLCSLYENDCIFDKFECCWNGSDSVVMTGSYNNFFRMFDRNTKRDITLEASRENNKPRTVLKPRKVCASGKRKKDEISVDSLDFNKKILHTAWHPKENIIAVATTNNLYIFQDKVN
chain 2: MPPKTPRKTAATAAAAAAEPPAPPPPPPPEEDPEQDSGPEDLPLVRLEFEETEEPDFTALCQKLKIPDHVRERAWLTWEKVSSVDGVLGGYIQKKKELWGICIFIAAVDLDEMSFTFTELQKNIEISVHKFFNLLKEIDTSTKVDNAMSRLLKKYDVLFALFSKLERTCELIYLTQPSSSISTEINSALVLKVSWITFLLAKGEVLQMEDDLVISFQLMLCVLDYFIKLSPPMLLKEPYKTAVIPINGSPRTPRRGQNRSARIAKQLENDTRIIEVLCKEHECNIDEVKNVYFKNFIPFMNSLGLVTSNGLPEVENLSKRYEEIYLKNKDLDARLFLDHDKTLQTDSIDSFETQRTPRKSNLDEEVNVIPPHTPVRTVMNTIQQLMMILNSASDQPSENLISYFNNCTVNPKESILKRVKDIGYIFKEKFAKAVGQGCVEIGSQRYKLGVRLYYRVMESMLKSEEERLSIQNFSKLLNDNIFHMSLLACALEVVMATYSRSTSQNLDSGTDLSFPWILNVLNLKAFDFYKVIESFIKAEGNLTREMIKHLERCEHRIMESLAWLSDSPLFDLIKQSKDREGPTDHLESACPLNLPLQNNHTAADMYLSPVRSPKKKGSTTRVNSTANAETQATSAFQTQKPLKSTSLSLFYKKVYRLAYLRLNTLCERLLSEHPELEHIIWTLFQHTLQNEYELMRDRHLDQIMMCSMYGICKVKNIDLKFKIIVTAYKDLPHAVQETFKRVLIKEEEYDSIIVFYNSVFMQRLKTNILQYASTRPPTLSPIPHIPRSPYKFPSSPLRIPGGNIYISPLKSPYKISEGLPTPTKMTPRSRILVSIGESFGTSEKFQKINQMVCNSDRVLKRSAEGSNPPKPLKKLRFDIEGSDEADGSKHLPGESKFQQKLAEMTSTRTRMQKQKMNDSMDTSNKEEK

variants of: B1; test: co-immunoprecipitation (anti-Myc IP), western blot quantitation; 293T cells, co-transfected; read off a plot

These recorded examples may help you get a feel for the data.
chain 1 D116A | ~0.35
chain 1 H179A | ~0.8
chain 1 V228A | ~0.85
chain 1 L225A | ~0.2
chain 1 E283A | ~0.3

q: So what does the record say about ratio to parent for chain 1 F280A ?
a: ~0.5

q: So what does the record say about ratio to parent for chain 1 K98A ?
a: ~0.65

q: So what does the record say about ratio to parent for chain 1 S247A ?
a: ~1.5

q: So what does the record say about ratio to parent for chain 1 K345A ?
a: ~0.65

q: So what does the record say about ratio to parent for chain 1 K48E ?
a: ~0.95

q: So what does the record say about ratio to parent for chain 1 T436A ?
a: ~0.7

q: So what does the record say about ratio to parent for chain 1 D197K ?
a: ~-0.2

q: So what does the record say about ratio to parent for chain 1 N181A ?
a: ~1.1

q: So what does the record say about ratio to parent for chain 1 S287A ?
a: ~1.5

q: So what does the record say about ratio to parent for chain 1 E347A ?
a: ~0.55

// provenance: paper PMC8575462
